# Assay overview: in vivo
# Test context: BALB/c nude, mouse, in vivo, iv, total radioactivity, % ID/g Liver

Molecule	tissue uptake at 4 h (%ID/g)
C[C@@H](O)[C@H](NC(=O)[C@@H]1CSSC[C@H](NC(=O)[C@@H](Cc2ccccc2)NC(=O)[C@H](CCCCNC(=O)c2cccc(NC(=O)N[C@@H]3CN(C4CCCCC4)c4ccccc4N(CC(=O)C(C)(C)C)C3=O)c2)NC(=O)COCCOCCNC(=O)CN2CCN(CC(=O)O)CCN(CC(=O)O)CCN(CC(=O)O)CC2)C(=O)N[C@@H](Cc2ccc(O)cc2)C(=O)N[C@H](Cc2c[nH]c3ccccc23)C(=O)N[C@@H](CCCCN)C(=O)N[C@@H]([C@@H](C)O)C(=O)N1)C(=O)O [^177Lu-I-35, metal not drawn]	18.1
C[C@@H](O)[C@H](NC(=O)[C@@H]1CSSC[C@H](NC(=O)[C@@H](Cc2ccccc2)NC(=O)CN2CCN(CC(=O)O)CCN(CC(=O)O)CCN(CC(=O)O)CC2)C(=O)N[C@@H](Cc2ccc(O)cc2)C(=O)N[C@H](Cc2c[nH]c3ccccc23)C(=O)N[C@@H](CCCCN)C(=O)N[C@@H]([C@@H](C)O)C(=O)N1)C(=O)O [^177Lu-C-1, metal not drawn, reference compound]	0.1
CC(C)(C)C(=O)CN1C(=O)[C@H](NC(=O)Nc2cccc(C(=O)N[C@@H](CCC(=O)N[C@@H](CCC(=O)N[C@@H](CCC(=O)N[C@@H](CCCCNC(=O)COCCOCCNC(=O)COCCOCCNC(=O)CCC(C(=O)O)N3CCN(CC(=O)O)CCN(CC(=O)O)CCN(CC(=O)O)CC3)C(N)=O)C(=O)O)C(=O)O)C(=O)O)c2)CN(C2CCCCC2)c2ccccc21 (some centres unmarked) [^177Lu-C-4, metal not drawn, reference compound]	0.17
C[C@@H](O)[C@H](NC(=O)[C@@H]1CSSC[C@H](NC(=O)[C@@H](Cc2ccccc2)NC(=O)[C@H](CCCCNC(=O)COCCOCCNC(=O)c2cccc(NC(=O)N[C@@H]3CN(C4CCCCC4)c4ccccc4N(CC(=O)C(C)(C)C)C3=O)c2)NC(=O)CN2CCN(CC(=O)O)CCN(CC(=O)O)CCN(CC(=O)O)CC2)C(=O)N[C@@H](Cc2ccc(O)cc2)C(=O)N[C@H](Cc2c[nH]c3ccccc23)C(=O)N[C@@H](CCCCN)C(=O)N[C@@H]([C@@H](C)O)C(=O)N1)C(=O)O [^177Lu-I-36, metal not drawn]	12
CCCC[C@H](NC(=O)[C@H](Cc1c[nH]c2ccccc12)NC(=O)CNC(=O)[C@H](Cc1ccc(O)cc1)NC(=O)[C@H](C)NC(=O)[C@@H](CCC(=O)O)NC(=O)[C@@H](CCC(=O)O)NC(=O)[C@@H](CCC(=O)O)NC(=O)[C@@H](CCC(=O)O)NC(=O)[C@@H](CCC(=O)O)NC(=O)[C@@H](CCC(=O)O)NC(=O)CN1CCN(CC(=O)O)CCN(CC(=O)O)CCN(CC(=O)O)CC1)C(=O)N[C@@H](CC(=O)O)C(=O)N[C@@H](Cc1ccccc1)C(N)=O [^177Lu-C-2, metal not drawn, reference compound]	0.15

Recorded values, source patent US20260248972A1.
